# System: EKVX NSCLC
# method.summary: NCI tumour cell line growth inhibition, 48 h
assay.metric: TGI (µM)

# compound, assay.metric, cmp, experimental.value
rows = [
    ("NC1=NCC(CN2CCCC2)O1 (stereo unspecified)", "TGI", ">", 100),
    ("COC(=O)/C(=N/NC(N)=O)C(C(=O)OC)C(=O)C(=O)Nc1ccc(Cl)cc1 (stereo unspecified)", "TGI", ">", 100),
    ("C=C1C(=O)O[C@H]2[C@H]3O[C@@H](C[C@@H]12)[C@](C)(O)CC[C@@H]1O[C@@]1(C)CCC[C@H]3C", "TGI", "=", 54.6),
    ("CC1(C)OC2C(COS(N)(=O)=O)SC(n3cnc4cncnc43)C2O1 (stereo unspecified)", "TGI", ">", 100),
    ("CCC(CC(C)C)Nc1ccc(NC(CC)CC(C)C)cc1 (stereo unspecified)", "TGI", "=", 37.6),
    ("O=C1C=CC(=O)c2c(Cl)ccc(O)c21", "TGI", "=", 43),
]

----------
# Test system: M14 melanoma
# method.summary: NCI tumour cell line growth inhibition, 48 h

# compound, cmp, TGI / µM
measured = [
    ("CCOC(=O)C(=O)C(=O)NN(C)C1=NCCN1", ">", 100),
    ("COc1ccc(CCc2cc(OC)c(OC)c(OC)c2)cc1", "=", 16),
    ("CCN(CC)c1nc(N(C)C)c2ccccc2n1", "=", 72.1),
    ("C=CC1CN2CCC1CC2C(O)c1ccnc2ccccc12 (stereo not given)", ">", 100),
    ("CC(C)C(=O)Oc1cc2c(=O)oc3c(OC(=O)C(C)C)c(OC(=O)C(C)C)cc4c(=O)oc(c1OC(=O)C(C)C)c2c34", ">", 100),
    ("C=C1C(=O)O[C@H]2[C@H]3O[C@@H](C[C@@H]12)[C@](C)(O)CC[C@@H]1O[C@@]1(C)CCC[C@H]3C", "=", 29.3),
    ("C[C@]12CC[C@H](OC3CCCCO3)CC1=CC[C@@H]1C2CC[C@]2(C)/C(=N/O)CCC12 (stereo not given in full)", "=", 63.9),
    ("O=C1C=CC2(C=C1)C[C@H](NC(=O)C(F)(F)F)C(=O)O2", ">", 100),
    ("COc1cc2cc3c4c(cc(OC)c(OC)c4c2cc1OC)CCN3C(=O)CCC(=O)NCCCN(C)C", "=", 32),
    ("NC1=NCC(CN2CCCC2)O1 (stereo not given)", ">", 100),
]

----------
# Tested on: HL-60(TB) leukemia
Classes used: T (active), F (inactive)

# compound, experimental.target, assigned.class
records = [
    ("CC1COCC(C)N1C1=C(Cl)C(=O)c2ccccc2C1=O (stereo not given)", "HL-60(TB) leukemia", "F"),
    ("CCOc1cc(-c2ccc[nH]2)[nH]c1/C=C1\\N=C(C)C(C(=O)OC)=C1C", "HL-60(TB) leukemia", "T"),
    ("CCOP(=O)(OCC)C(C)(CC)NC(=O)C(C(F)(F)F)C(F)(F)F (stereo not given)", "HL-60(TB) leukemia", "F"),
    ("CO[C@@]12[C@@H]3NC3CN1C1=C(C(=O)C(N)=C(C)C1=O)[C@@H]2COC(N)=O (stereo not given in full)", "HL-60(TB) leukemia", "T"),
    ("Oc1ccc(Cl)cc1Cc1cc(Cl)ccc1O", "HL-60(TB) leukemia", "F"),
    ("Cc1cc(C(O)CN(C)C)cc2c1ccc1cc(C(C)C)ccc12 (stereo not given)", "HL-60(TB) leukemia", "F"),
    ("CN1CCN(c2nc(-c3ccncc3)nc3sc4c(c23)CCCCCC4)CC1", "HL-60(TB) leukemia", "F"),
    ("O=C(Nc1cccc(-n2cc(-c3ccncc3)c(-c3ccc(O)c(Cl)c3)n2)c1)c1cccc(C(F)(F)F)c1", "HL-60(TB) leukemia", "F"),
    ("C=[CH][Sn]([CH]=C)([O]c1cccc2cccnc12)[O]c1cccc2cccnc12", "HL-60(TB) leukemia", "F"),
    ("O=c1c2ccccc2oc2ccc(OCCCCCCN3CCCCCC3)cc12", "HL-60(TB) leukemia", "F"),
]

----------
Entries with their measured GI50, system 786-0 renal:

# compound, GI50
measured = [
    ("COc1cccc(/C=C/C(=O)c2cc3c(N)c(C(=O)Nc4cccc5ccccc45)sc3nc2C)c1", "0.851 µM"),
    ("CC1=C(C(=O)Nc2ccc(Cl)c(Cl)c2)C(c2ccccc2O)NC(=O)N1 (stereo unspecified)", "> 50 µM"),
    ("CC(=O)N(Cc1ccccc1)c1ccccc1I(=O)=O", "57.8 µM"),
    ("O=c1[nH]c2ccccc2n1-c1n[nH]c2ccccc12", "46.6 µM"),
    ("CSC1=NCC2(S1)c1ccccc1N(C(=O)OC(C)(C)C)C2N1CCCCC1 (stereo unspecified)", "16.2 µM"),
    ("Oc1[nH]c2cc(Cl)ccc2c1/C=c1/ccc2c(c1)N=C(c1cc(F)cc(F)c1)N=2", "3.31 µM"),
    ("Nc1[nH]c(=O)ncc1CO", "> 100 µM"),
    ("OCNCCNc1nc2ccccc2c2[nH]c3ccccc3c12", "0.34 µM"),
    ("Oc1ccc(Cl)cc1Cc1cc(Cl)ccc1O", "3.85 µM"),
    ("Nc1ccc2c(c1)c(N)nn2C(=O)Nc1ccc(Cc2ccccc2)cc1", "12.4 µM"),
    ("CC/C=C\\C/C=C\\C[C@H](O)C/C=C1/C(=O)C=C[C@@H]1C/C=C\\CCCC(=O)OC", "1.82 µM"),
]

----------
# Test system: T-47D breast
# method.summary: NCI tumour cell line growth inhibition, 48 h
Examples of compounds with documented TGI follow.
assay.metric: TGI (µM)

# compound, experimental.target, cmp, experimental.value
measured = [
    ("COc1cc([N+](=O)[O-])c2ncccc2c1[N+](=O)[O-]", "T-47D breast", "=", 11.7),
    ("C/C(Nc1ccc(Cl)cc1Cl)=C1/CCOC1=O", "T-47D breast", ">", 100),
    ("Cc1cc2cc3c(cc2c(-c2ccc(N)cc2)n1)OCO3", "T-47D breast", ">", 100),
    ("CC(=O)/C(=C\\c1ccc(Cl)c(Cl)c1)C(=O)C(C)CN(C)C (stereo unspecified)", "T-47D breast", "=", 12.3),
    ("O=[N+]([O-])c1ccc(C(Nc2ccccc2)c2ccc3cccnc3c2O)cc1 (stereo unspecified)", "T-47D breast", "=", 44.4),
    ("O=C(Cc1csc2nc(-c3ccc(Br)cc3)cn12)N/N=C/c1ccc(O)cc1", "T-47D breast", ">", 100),
    ("O=C(/C=C/c1cccs1)c1ccccc1Cl", "T-47D breast", "=", 22.8),
    ("CCOC(=O)c1cn(C)c(=S)n2c1nc1ccccc12", "T-47D breast", ">", 100),
    ("Cc1nc(-c2cc3cc(Cl)ccc3oc2=O)cc2c1c(=O)oc1ccc(Cl)cc12", "T-47D breast", ">", 100),
    ("CCOC(=O)C1(C(F)(F)F)N=C(CC)OC(N2CCOCC2)=N1 (stereo unspecified)", "T-47D breast", ">", 100),
    ("CCC(CC(C)C)Nc1ccc(NC(CC)CC(C)C)cc1 (stereo unspecified)", "T-47D breast", "=", 26.7),
]

----------
Reported TGI by item:
# Test system: HOP-18 NSCLC
# method.summary: NCI tumour cell line growth inhibition, 48 h
assay.metric: TGI (µM)

# molecule, cmp, experimental.value
data = [
    ("CC1CC[C@]2(C(=O)O)CCC3(C)C(=CCC4[C@@]5(C)CC[C@H](OS(=O)(=O)c6ccccc6)C(C)(C)C5CC[C@]43C)[C@@H]2[C@H]1C (stereo partly specified)", ">", 100),
    ("CC1(C2CCC3(C)OC3C2)CO1 (stereo unspecified)", ">", 100),
    ("O=C(c1ccc(Cl)cc1)C1OC12C(=O)Nc1ccccc12 (stereo unspecified)", "=", 27),
    ("COc1ccc(CCc2cc(OC)c(OC)c(OC)c2)cc1", ">", 100),
    ("C[C@]12CC[C@H](OC3CCCCO3)CC1=CC[C@@H]1C2CC[C@]2(C)/C(=N/O)CCC12 (stereo partly specified)", "=", 30.5),
    ("CCCCCCCCCCCCCc1nn[nH]n1", "=", 28.2),
]

----------
# key: entry, value: TGI
# System: HCT-15 colon
# method.summary: NCI tumour cell line growth inhibition, 48 h

# molecule, unit.of.measure, cmp, TGI
data = [
    ("CO[C@H]1C[C@H](O[C@H]2CC[C@]3(C=O)[C@H]4CC[C@]5(C)[C@@H](C6=CC(=O)OC6)CC[C@]5(O)[C@@H]4CC[C@]3(O)C2)O[C@H](C)[C@H]1O", "µM", "=", 0.732),
    ("O=C1C=CC(=O)c2c(Cl)ccc(O)c21", "µM", "=", 39.1),
    ("O=[N+]([O-])c1cccnc1-n1cnc2ccccc21", "µM", ">", 100),
    ("CC/C=C\\C/C=C\\C[C@H](O)C/C=C1/C(=O)C=C[C@@H]1C/C=C\\CCCC(=O)OC", "µM", "=", 2.38),
    ("COc1ccc(CCN2CCc3c(C)c(C#N)c4nc5ccccc5n4c32)cc1OC", "µM", ">", 100),
    ("CS(=O)(=O)NC12CCC(c3ccccc31)c1ccccc12", "µM", ">", 100),
    ("Cn1c2ccccc2n2c3ncccc3c(=S)c(C#N)c12", "µM", ">", 100),
    ("NC(=O)Cc1nc2c(=O)[nH]cnc2n1C1OC(CO)C(O)C1O (stereo not given)", "µM", ">", 100),
    ("Cc1cc2cc3c(cc2c(-c2ccc(N)cc2)n1)OCO3", "µM", ">", 100),
    ("Nc1ncnc2c1ncn2Cc1cccc(CCl)c1", "µM", "=", 41.7),
]
